system: F380Y/beta4; experiment: modulators of BK channel variants, profiling panel, selectivity assay, cell-based, U2OS BacMam, thallium flux, beta subunits (AID 1259406); settings: at 30 µM;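 also: initial slope of Thallos dye fluorescence rise after thallium is added; log ratio against the mean of 0.3% DMSO vehicle wells on the same plate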
Calls of active or inactive are those of the source.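 The calls were made as follows: active = thallium flux through the channel raised or lowered by more than 3 SD from vehicle-only wells, actives on both sides; inactive = the rest.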
The reply should be one of these categories: 1.0 = active, 0.0 = inactive

# input Recorded test call requested for C[N+]1(C)CCCC(OC(=O)C(O)(c2ccccc2)c2ccccc2)C1 (stereo not given)
# output 0.0

Further cases:
# input Any idea what this test logged for C#C[C@]1(OC(C)=O)CC[C@H]2[C@@H]3CCC4=CC(=O)CC[C@@H]4[C@H]3CC[C@@]21C ?
# output 1.0

# input What about this molecule? CN(C)c1nc(N(C)C)nc(N(C)C)n1
# output 0.0

# input Subsequent entry: Cc1cccc(C)c1NC(=O)C1CCCCN1C (stereo not given)
# output 0.0

# input Next entry: CCCC(=O)Nc1ccc(OCC(O)CNC(C)C)c(C(C)=O)c1 (stereo not given)
# output 0.0

# input # iterate: CC(C)n1c(/C=C/[C@@H](O)C[C@@H](O)CC(=O)O)c(-c2ccc(F)cc2)c2ccccc21
# output 0.0

---

molecular target: Mitogen-activated protein kinase 7 (Homo sapiens); assay: ERK5 transactivation activators in reporter cells, primary screen, cell-based, HTS (AID 1508626); settings: HeLa Gal4-ERK5 transactivation, 18 h, at 5 µM;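 also: luciferase driven by Gal4-ERK5 fusion binding five Gal4 sites before minimal TATA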
Active and inactive are the calls of the source.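 The calls were made as follows: active = luciferase signal above three times the same-plate solvent-only control wells; inactive = the rest.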
Would you mind answering with one of these outcomes? YES = active, NO = inactive

# input How did this test come out for CC(C)[C@@H](C)/C=C/[C@@H](C)[C@H]1CC[C@H]2C3=CC=C4C[C@@H](O)CC[C@]4(C)[C@H]3CC[C@]12C ?
# output NO

# input Try the compound CC1=C[C@@H]2[C@@H](CC1)[C@](C)(O)CC[C@H]2C(C)C
# output NO

# input What about this compound? COC(=O)[C@H]1[C@H]2C[C@H]3c4[nH]c5cc(OC)ccc5c4CCN3C[C@H]2C[C@@H](OC(=O)c2cc(OC)c(OC)c(OC)c2)[C@@H]1OC
# output NO

---

experiment: inhibition of endothelial tube formation, primary screen, imaging, VEGF stimulated, CD31 staining, tube area, NPC library (AID 1117340); settings: VEGF-stimulated ADSC/ECFC co-culture, at 10 µM, stronger effect = higher value
The source made the active and inactive calls.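 The calls were made as follows: active = compound that reduces growth-factor-driven endothelial tube area in a mixed cell culture, no cutoff stated; inactive = the rest.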
quantity measured: tube area decrease

# input Give its tube area decrease value. Item: O=C(O)[C@H](O)[C@@H](O)[C@H](O[C@@H]1O[C@H](CO)[C@H](O)[C@H](O)[C@H]1O)[C@H](O)CO
# output -14.9% (inactive)

# input Also CC(C)=CCC[C@@](C)(O)[C@H]1CC=C(C)CC1 ?
# output 5% (inactive)

# input Same question for CC(C)(C)NC(=O)[C@@H]1C[C@@H]2CCCC[C@H]2CN1C[C@@H](O)[C@H](Cc1ccccc1)NC(=O)[C@H](CC(N)=O)NC(=O)c1ccc2ccccc2n1 please.
# output 29.6% (inactive)

Would you be so kind as to report tube area decrease for each listed record?
1. C#CC1(O)CC[C@H]2[C@@H]3CCC4=CCCC[C@@H]4[C@H]3CC[C@@]21C (stereo not given in full)
2. CCCC(=O)OCOC(=O)C1=C(C)NC(C)=C(C(=O)OC)C1c1cccc(Cl)c1Cl (stereo not given)
3. Cc1cccc(C)c1NC(=O)CN1CCN(CCCC(c2ccc(F)cc2)c2ccc(F)cc2)CC1
4. Cn1ccc2cc3c(cc21)CCN3C(=O)Nc1cccnc1
5. CCOC(=O)Nc1ccc2c(c1)N(C(=O)CCN1CCOCC1)c1ccccc1S2
6. C#C[C@]1(O)CC[C@H]2[C@@H]3CCc4cc(OC5CCCC5)ccc4[C@H]3CC[C@@]21C
7. COc1cccc2c1C(=O)c1c(O)c3c(c(O)c1C2=O)C[C@@](O)(C(C)=O)C[C@@H]3O[C@H]1C[C@H](N)[C@H](O)[C@H](C)O1

# output
1. 14.7% (inactive)
2. -4.1% (inactive)
3. 82.9% (active)
4. -4.4% (active)
5. 4% (inactive)
6. 46.9% (active)
7. -9.1% (active)

Each molecule below has a recorded value; state its tube area decrease.
1. CCCNC(C)C(=O)Nc1c(C)csc1C(=O)OC (stereo not given)
2. CC(C)COC(=O)c1ccc(N)cc1
3. CC1=C(/C=C/C(C)=C/C=C/C(C)=C/C(=O)Nc2ccc(O)cc2)C(C)(C)CCC1
4. O=[N+]([O-])c1cncn1CCN1CCOCC1
5. Clc1ccc(C(Cn2ccnc2)OCc2ccc(Sc3ccccc3)cc2)c(Cl)c1 (stereo not given)
6. OC[C@@H](O)[C@@H](O[C@@H]1O[C@H](CO)[C@H](O)[C@H](O)[C@H]1O)[C@H](O)[C@@H](O)CO

# output
1: 5.2% (inactive); 2: 0.5% (inactive); 3: 110% (active); 4: 13.6% (inactive); 5: 110% (active); 6: -0.6% (inactive)

Required: tube area decrease, one value per molecule below.
1. CC(=O)NCc1c(I)c(NC(C)=O)c(I)c(C(=O)O)c1I
2. COc1cc(C)c(C=CC(C)=CC=CC(C)=CC(=O)O)c(C)c1C

# output
1: -6.1% (inactive); 2: 45.4% (active)

List the reported tube area decrease of each molecule below.
1. CN1CCN(C2=Nc3cc(Cl)ccc3Nc3ccccc32)CC1
2. NCCCNCCSP(=O)(O)O

# output
1. -0.2% (inactive)
2. -8.5% (inactive)
